target: Inhibitor of nuclear factor kappa-B kinase subunit epsilon (Homo sapiens) (UniProt Q14164); conditions: at 0.1 µM;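 note: mean inhibition of IKKε reported, from the GSK PKIS dataset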
Sequence (Q14164 whole entry): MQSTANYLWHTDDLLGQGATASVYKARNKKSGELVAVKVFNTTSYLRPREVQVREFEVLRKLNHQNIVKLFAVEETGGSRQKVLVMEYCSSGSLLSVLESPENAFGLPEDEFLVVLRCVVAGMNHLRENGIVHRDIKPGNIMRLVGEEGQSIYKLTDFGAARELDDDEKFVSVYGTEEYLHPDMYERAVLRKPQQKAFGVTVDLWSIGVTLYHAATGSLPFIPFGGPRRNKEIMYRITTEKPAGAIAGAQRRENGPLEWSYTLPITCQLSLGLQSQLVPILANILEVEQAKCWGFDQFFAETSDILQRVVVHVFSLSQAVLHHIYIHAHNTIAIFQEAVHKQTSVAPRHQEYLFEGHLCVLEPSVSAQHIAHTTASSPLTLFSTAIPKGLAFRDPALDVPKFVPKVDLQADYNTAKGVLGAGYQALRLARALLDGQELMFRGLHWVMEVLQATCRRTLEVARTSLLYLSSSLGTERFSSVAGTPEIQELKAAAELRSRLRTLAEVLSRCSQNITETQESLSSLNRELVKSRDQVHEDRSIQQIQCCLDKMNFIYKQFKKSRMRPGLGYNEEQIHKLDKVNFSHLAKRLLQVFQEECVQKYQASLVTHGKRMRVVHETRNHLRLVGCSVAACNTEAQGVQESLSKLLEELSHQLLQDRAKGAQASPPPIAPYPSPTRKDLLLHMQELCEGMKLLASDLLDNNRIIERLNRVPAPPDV
Items are presented alongside their recorded inhibition.
endpointName: inhibition (%)

# smilesRecord, targetOfAssay, unitSymbol, recordedResult
records = [
    ("NC(=O)c1cccc(Nc2nccc(Nc3cccc(F)c3)n2)c1", "Inhibitor of nuclear factor kappa-B kinase subunit epsilon (Homo sapiens) (UniProt Q14164)", "%", 2.08),
    ("COC(=O)c1ccc2c(c1)C(=Cc1cc(Br)c(O)c(Br)c1)C(=O)N2", "Inhibitor of nuclear factor kappa-B kinase subunit epsilon (Homo sapiens) (UniProt Q14164)", "%", 7.2),
    ("Cc1ccc(O)cc1Nc1ccnc2ccc(S(C)(=O)=O)cc12", "Inhibitor of nuclear factor kappa-B kinase subunit epsilon (Homo sapiens) (UniProt Q14164)", "%", 6.64),
    ("[O-][S+]1CCN(Cc2ccc(-c3ccc4ncnc(Nc5ccc(OCc6ccccc6)c(Cl)c5)c4c3)o2)CC1", "Inhibitor of nuclear factor kappa-B kinase subunit epsilon (Homo sapiens) (UniProt Q14164)", "%", 1.93),
    ("NC(=O)c1sc(-n2cnc3ccccc32)cc1OCc1ccccc1Br", "Inhibitor of nuclear factor kappa-B kinase subunit epsilon (Homo sapiens) (UniProt Q14164)", "%", 8.4),
    ("Cc1ccc2c(-c3ccnc(Nc4cccc(C(F)(F)F)c4)n3)c(-c3ccccc3)nn2n1", "Inhibitor of nuclear factor kappa-B kinase subunit epsilon (Homo sapiens) (UniProt Q14164)", "%", 7.46),
    ("CC(C)c1ccc(Nc2nccc(-c3cnn4ncccc34)n2)cc1", "Inhibitor of nuclear factor kappa-B kinase subunit epsilon (Homo sapiens) (UniProt Q14164)", "%", 4.12),
    ("Nc1nccc(-c2c(-c3ccc(F)cc3)ncn2CCCN2CCOCC2)n1", "Inhibitor of nuclear factor kappa-B kinase subunit epsilon (Homo sapiens) (UniProt Q14164)", "%", 4.76),
    ("ON=C1CCc2cc(-c3nc(C4CCNCC4)[nH]c3-c3ccncc3)ccc21", "Inhibitor of nuclear factor kappa-B kinase subunit epsilon (Homo sapiens) (UniProt Q14164)", "%", 1.88),
    ("COc1cccc(-n2ncc3c(N/N=C/c4ccc(C)cc4)ncnc32)c1", "Inhibitor of nuclear factor kappa-B kinase subunit epsilon (Homo sapiens) (UniProt Q14164)", "%", 5.66),
    ("CN1CCN(C(=O)c2ccc(NC(=O)Nc3ccc(N(C)c4ccnc(Nc5ccc(CS(C)(=O)=O)cc5)n4)cc3)cc2)CC1", "Inhibitor of nuclear factor kappa-B kinase subunit epsilon (Homo sapiens) (UniProt Q14164)", "%", 4.12),
    ("CN(C)CCCn1c(-c2nonc2N)nc2cnccc21", "Inhibitor of nuclear factor kappa-B kinase subunit epsilon (Homo sapiens) (UniProt Q14164)", "%", 4.73),
    ("Cc1cc(Cl)cc2c1NC(=O)C2=NNc1ccc(S(N)(=O)=O)cc1", "Inhibitor of nuclear factor kappa-B kinase subunit epsilon (Homo sapiens) (UniProt Q14164)", "%", 6.15),
    ("C[C@@H](Oc1cc(-n2cnc3ccc(OCC4CCN(C)CC4)cc32)sc1C(N)=O)c1ccccc1C(F)(F)F", "Inhibitor of nuclear factor kappa-B kinase subunit epsilon (Homo sapiens) (UniProt Q14164)", "%", -3.26),
    ("Cc1ccc(C(=O)NC2CC2)cc1-c1ccc2[nH]ncc2c1", "Inhibitor of nuclear factor kappa-B kinase subunit epsilon (Homo sapiens) (UniProt Q14164)", "%", -3.17),
    ("CCS(=O)(=O)c1ccc(OC)c(Nc2nccc(N(C)c3ccc4c(C)n[nH]c4c3)n2)c1", "Inhibitor of nuclear factor kappa-B kinase subunit epsilon (Homo sapiens) (UniProt Q14164)", "%", 7.85),
    ("COC(=O)c1cncc(/C=C/c2c(C)cc(O)cc2C)c1", "Inhibitor of nuclear factor kappa-B kinase subunit epsilon (Homo sapiens) (UniProt Q14164)", "%", 8.93),
    ("Cc1ccc2c(-c3ccnc(Nc4ccc5c(c4)OCCO5)n3)c(-c3ccc(C(F)(F)F)cc3)nn2n1", "Inhibitor of nuclear factor kappa-B kinase subunit epsilon (Homo sapiens) (UniProt Q14164)", "%", 4.65),
    ("NS(=O)(=O)c1cccc(-c2cc3ccncc3cc2OCc2ccccc2)c1", "Inhibitor of nuclear factor kappa-B kinase subunit epsilon (Homo sapiens) (UniProt Q14164)", "%", 4.52),
    ("Cc1ccc2c(c1)/C(=N/Nc1ccc(S(N)(=O)=O)cc1)C(=O)N2", "Inhibitor of nuclear factor kappa-B kinase subunit epsilon (Homo sapiens) (UniProt Q14164)", "%", -5.56),
    ("Nc1nccc(-c2c(-c3ccc(F)cc3)nn3cc(C(F)(F)F)ccc23)n1", "Inhibitor of nuclear factor kappa-B kinase subunit epsilon (Homo sapiens) (UniProt Q14164)", "%", 1.65),
]
